Assay: Cmax in ICR mouse at 10 mg/kg, po measured upto 24 hrs by UPLC analysis
Type: ADME, organism-based
Design: time < 24 hrs, dose 10 mg/kg, route po
Details: in vivo
OBSERVABLE: Cmax (ng/mL)
Field format: number, assumed ng/mL, no unit text.

Suppose we examine the compound CNCCNCc1cccc(-c2nc(NC3CCOCC3)c(C)c(-c3c(C)noc3C)n2)c1 ; what Cmax value has been reported?
95.4

----------
Test: Metabolic stability in monkey liver microsomes assessed as parent compound remaining measured after 2 hrs
Assay type: ADME, Macaca mulatta, Microsome
Conditions: rhesus monkey, read-out: Stability
OBSERVABLE: remaining at 2 h (%)
Reply with just the number (in %).

Any idea what remaining at 2 h was measured for CNCCNCc1cccc(-c2nc(NC3CCOCC3)c(C)c(-c3c(C)noc3C)n2)c1 ?
86.1

----------
Test: AUClast in ICR mouse at 10 mg/kg, po measured upto 24 hrs by UPLC analysis
Format: ADME, organism-based
Set-up: dose 10 mg/kg, time < 24 hrs, route po
Conditions: in vivo
OBSERVABLE: AUC(0-t) at 24 h (ng·h/mL)
Kindly answer with a numeric value in ng·h/mL, unit omitted.

# get_value(readout='AUC(0-t) at 24 h', item= CNCCNCc1cccc(-c2nc(NC3CCOCC3)c(C)c(-c3c(C)noc3C)n2)c1 )
199

----------
Assay: Half life in ICR mouse at 10 mg/kg, po measured upto 24 hrs by UPLC analysis
Format: ADME, organism-based
Settings: in vivo
OBSERVABLE: half-life (h)
Respond numerically; units are h and should not be typed.

Please report the recorded half-life for CNCCNCc1cccc(-c2nc(NC3CCOCC3)c(C)c(-c3c(C)noc3C)n2)c1 .
6.56

----------
Test: Metabolic stability in human liver microsomes assessed as parent compound remaining measured after 2 hrs
Type: ADME, Microsome
Details: read-out: Stability
OBSERVABLE: remaining at 2 h (%)
Entry rule: numbers only, all in %.

Value lookup for remaining at 2 h; key = CNCCNCc1cccc(-c2nc(NC3CCOCC3)c(C)c(-c3c(C)noc3C)n2)c1
93.1

----------
Test: Metabolic stability in rat liver microsomes assessed as parent compound remaining measured after 2 hrs
Format: ADME, Microsome
Conditions: read-out: Stability
OBSERVABLE: remaining at 2 h
Please format your answer as a value with the unit trailing.

For the compound shown here, CNCCNCc1cccc(-c2nc(NC3CCOCC3)c(C)c(-c3c(C)noc3C)n2)c1 , give the reported remaining at 2 h.
93.4%

----------
System: A-375
Assay: Antiproliferative activity against human A-375 cells assessed as cell growth inhibition incubated for 6 days by SRB assay
Type: functional, cell-based
Settings: A-375, 144 h
# maps each entry to its pIC50
pIC50 is a log-scale quantity: -log10 of the concentration expressed in molar.

Worked set:
CNCCNCc1cccc(-c2nc(NC3CCOCC3)c(C)c(-c3ccnc4[nH]ccc34)n2)c1; 4.74
CNCCNCc1cccc(-c2nc(NC3CCOCC3)c(C)c(-c3ccncc3)n2)c1; 4.35
CNCCNCc1cccc(-c2nc(NC3CCOCC3)c(C)c(-c3cccnc3)n2)c1; 4.34
CNCCNCc1cccc(-c2nc(NC3CCOCC3)c(C)c(-c3ccc(O)cc3)n2)c1; 4.62

Now for the compound whose pIC50 we want.
Give its pIC50 value. Item: CNCCNCc1cccc(-c2nc(Nc3ccccc3)c(C)c(-c3c(C)noc3C)n2)c1
5.23

----------
Experiment: Tmax in ICR mouse at 10 mg/kg, po measured upto 24 hrs by UPLC analysis
Assay type: ADME, organism-based
Conditions: in vivo
OBSERVABLE: Tmax (h)
Numeric answer only, unit h assumed.

GET /values?readout=Tmax&item= CNCCNCc1cccc(-c2nc(NC3CCOCC3)c(C)c(-c3c(C)noc3C)n2)c1
1.33

----------
Biological target: Protein arginine N-methyltransferase 1 (Homo sapiens, UniProt Q99873)
Sequence (Q99873 whole entry): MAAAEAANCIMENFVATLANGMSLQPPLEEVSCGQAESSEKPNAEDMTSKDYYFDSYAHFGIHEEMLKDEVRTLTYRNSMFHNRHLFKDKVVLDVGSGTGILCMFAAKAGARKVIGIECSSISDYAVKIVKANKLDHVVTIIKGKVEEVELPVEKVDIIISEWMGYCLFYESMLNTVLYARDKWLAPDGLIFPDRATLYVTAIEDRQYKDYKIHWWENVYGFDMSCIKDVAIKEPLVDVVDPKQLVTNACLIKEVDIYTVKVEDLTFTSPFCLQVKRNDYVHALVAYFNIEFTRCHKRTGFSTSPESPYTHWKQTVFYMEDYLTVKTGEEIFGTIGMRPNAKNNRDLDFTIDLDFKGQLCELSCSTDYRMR
pIC50: −log10 of the molar value.
OBSERVABLE: pIC50

Please tell me: pIC50 of CNCCNCc1cccc(-c2nc(Nc3ccccc3)c(C)c(-c3c(C)noc3C)n2)c1 , system Protein arginine N-methyltransferase 1 (Homo sapiens, UniProt Q99873)?
< 6.00

----------
Biological target: Protein arginine N-methyltransferase 6 (Homo sapiens, UniProt Q96LA8)
Sequence (Q96LA8 whole entry): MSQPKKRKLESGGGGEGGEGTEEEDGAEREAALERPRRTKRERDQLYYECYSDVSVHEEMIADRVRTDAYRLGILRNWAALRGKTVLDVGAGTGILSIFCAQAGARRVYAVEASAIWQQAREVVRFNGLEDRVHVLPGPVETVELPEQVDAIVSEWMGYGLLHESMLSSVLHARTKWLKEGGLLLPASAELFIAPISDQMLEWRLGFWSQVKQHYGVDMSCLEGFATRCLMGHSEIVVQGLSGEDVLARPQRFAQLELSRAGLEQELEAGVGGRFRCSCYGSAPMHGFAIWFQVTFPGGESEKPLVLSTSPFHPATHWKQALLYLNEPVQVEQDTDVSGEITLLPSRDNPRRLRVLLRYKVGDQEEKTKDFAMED
OBSERVABLE: IC50 (nM)
Your answer should be a plain number; it is taken to be in nM.

Give recorded IC50 with Protein arginine N-methyltransferase 6 (Homo sapiens, UniProt Q96LA8) for the following compound: CNCCNCc1cccc(-c2nc(Nc3ccccc3)c(C)c(-c3c(C)noc3C)n2)c1
490

----------
The entries below come with measured IC50 values attached.
System: A-375
Assay: Antiproliferative activity against human A-375 cells assessed as cell growth inhibition incubated for 6 days by SRB assay
Assay type: functional, cell-based
Conditions: A-375, 144 h
# number only, unit µM dropped from output

CNCCNCc1cccc(-c2nc(Nc3ccccc3)c(C)c(-c3cccnc3)n2)c1; 10.9
CNCCNCc1cccc(-c2nc(-c3c(C)noc3C)c(C)c(N3CCOCC3)n2)c1; 24.7
CNCCNCc1cccc(-c2nc(NC3CCOCC3)c(C)c(-c3cccc4cnccc34)n2)c1; 12.7
CNCCNCc1cccc(-c2nc(Nc3ccccc3)c(C)c(-c3c(C)nn(C)c3C)n2)c1; 6.7

# next molecule below
Which IC50 is listed for CNCCNCc1cccc(-c2nc(-c3c(C)noc3C)c(C)c(N3Cc4cccnc4C3)n2)c1 ?
8.2

----------
Target: Protein arginine N-methyltransferase 8 (Homo sapiens)
Sequence (Q9NR22 whole entry): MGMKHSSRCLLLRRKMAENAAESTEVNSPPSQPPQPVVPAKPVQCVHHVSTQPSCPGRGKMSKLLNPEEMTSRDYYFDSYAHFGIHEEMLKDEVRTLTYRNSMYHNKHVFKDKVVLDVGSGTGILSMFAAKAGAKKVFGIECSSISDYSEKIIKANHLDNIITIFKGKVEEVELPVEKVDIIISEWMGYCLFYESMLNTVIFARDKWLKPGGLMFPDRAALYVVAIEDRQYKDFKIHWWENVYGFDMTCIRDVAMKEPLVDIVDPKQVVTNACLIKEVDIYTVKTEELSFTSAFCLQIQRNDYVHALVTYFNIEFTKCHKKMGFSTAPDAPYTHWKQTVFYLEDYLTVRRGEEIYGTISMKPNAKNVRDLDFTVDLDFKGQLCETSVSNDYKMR
OBSERVABLE: pIC50
Conceptually, pIC50 converts a concentration in mol/L into minus its log10.

What value of pIC50 on Protein arginine N-methyltransferase 8 (Homo sapiens) does CNCCNCc1cccc(-c2nc(Nc3ccccc3)c(C)c(-c3c(C)noc3C)n2)c1 have?
6.04

----------
Target: Histone-arginine methyltransferase CARM1 (Homo sapiens, UniProt Q86X55)
Sequence (Q86X55 whole entry): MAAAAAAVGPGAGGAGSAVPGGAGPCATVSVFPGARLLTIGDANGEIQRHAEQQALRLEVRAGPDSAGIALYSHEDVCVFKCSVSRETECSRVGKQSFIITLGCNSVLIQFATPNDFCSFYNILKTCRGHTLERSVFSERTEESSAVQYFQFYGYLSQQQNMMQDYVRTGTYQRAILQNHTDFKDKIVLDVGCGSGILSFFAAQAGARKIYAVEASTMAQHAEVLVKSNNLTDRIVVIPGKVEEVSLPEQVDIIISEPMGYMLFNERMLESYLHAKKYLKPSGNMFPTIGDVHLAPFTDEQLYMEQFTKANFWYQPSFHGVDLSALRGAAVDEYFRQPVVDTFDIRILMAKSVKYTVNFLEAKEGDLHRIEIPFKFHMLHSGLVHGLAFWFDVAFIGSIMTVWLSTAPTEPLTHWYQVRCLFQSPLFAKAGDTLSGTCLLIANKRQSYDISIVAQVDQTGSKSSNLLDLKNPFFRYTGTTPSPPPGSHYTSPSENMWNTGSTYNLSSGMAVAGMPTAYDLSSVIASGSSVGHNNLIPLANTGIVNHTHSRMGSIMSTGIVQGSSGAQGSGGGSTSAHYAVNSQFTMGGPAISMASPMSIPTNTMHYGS
Some molecules, each annotated with its measured IC50.

Known results for molecules:
CNCCNCc1cccc(-c2nc(NC3CCN(S(C)(=O)=O)CC3)c(C)c(-c3c(C)noc3C)n2)c1; 4.24 nM
CNCCNCc1cccc(-c2nc(NC3CCOCC3)c(C)c(Oc3ccccc3)n2)c1; 60 nM
CNCCNCc1cccc(-c2nc(NC3CCOCC3)c(C)c(-c3ccc(OC(F)(F)F)cc3)n2)c1; 5.13 nM
CNCCNCc1cccc(-c2nc(NC3CCOCC3)c(C)c(OCc3ccccc3)n2)c1; 33.6 nM

Kindly state the measured IC50 obtained for CNCCNCc1cccc(-c2nc(NC3CCOCC3)c(C)c(-c3ccnc4[nH]ccc34)n2)c1 with Histone-arginine methyltransferase CARM1 (Homo sapiens, UniProt Q86X55).
3.84 nM

Look up IC50 with Histone-arginine methyltransferase CARM1 (Homo sapiens, UniProt Q86X55) for this molecule: CNCCNCc1cccc(-c2nc(NC3CCOCC3)c(C)c(-c3c(C)nn(C)c3C)n2)c1
0.65 nM

Histone-arginine methyltransferase CARM1 (Homo sapiens, UniProt Q86X55) / IC50 / CNCCNCc1cccc(-c2nc(-c3c(C)noc3C)c(C)c(N3CCCCC3)n2)c1 : value?
21.7 nM

IC50 of CNCCNCc1cccc(-c2nc(NC3CCOCC3)c(C)c(-c3ccc(O)cc3)n2)c1 on Histone-arginine methyltransferase CARM1 (Homo sapiens, UniProt Q86X55)?
2.3 nM

Give IC50 (Histone-arginine methyltransferase CARM1 (Homo sapiens, UniProt Q86X55)) of the following molecule: Cc1c(NC2CCOCC2)nc(-c2cccc(CNC(=O)[C@@H](N)CO)c2)nc1-c1ccncc1
> 1000 nM

----------
Target: UniProt:O60678
Sequence (O60678 whole entry): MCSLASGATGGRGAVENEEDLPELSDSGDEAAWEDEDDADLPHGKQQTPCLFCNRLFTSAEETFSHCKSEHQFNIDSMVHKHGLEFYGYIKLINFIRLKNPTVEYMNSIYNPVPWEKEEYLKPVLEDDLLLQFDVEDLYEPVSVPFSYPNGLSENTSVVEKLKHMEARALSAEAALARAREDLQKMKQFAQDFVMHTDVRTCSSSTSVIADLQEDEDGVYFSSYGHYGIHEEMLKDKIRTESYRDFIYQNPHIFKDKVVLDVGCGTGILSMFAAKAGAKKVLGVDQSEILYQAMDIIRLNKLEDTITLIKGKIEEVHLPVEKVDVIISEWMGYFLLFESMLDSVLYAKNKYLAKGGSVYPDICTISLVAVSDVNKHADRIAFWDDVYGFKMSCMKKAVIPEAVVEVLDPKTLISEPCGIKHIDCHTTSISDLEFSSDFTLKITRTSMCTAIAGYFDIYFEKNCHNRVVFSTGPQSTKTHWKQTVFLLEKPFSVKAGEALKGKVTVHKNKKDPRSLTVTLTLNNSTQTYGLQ
OBSERVABLE: IC50

Request: IC50, test system UniProt:O60678, entry CNCCNCc1cccc(-c2nc(Nc3ccccc3)c(C)c(-c3c(C)noc3C)n2)c1
> 1 µM
